Form field: IC50 (one value per entry).
molecular target: HBsAg of HBV genotype B (AF 121245) (Hepatitis B virus); assay: sandwich ELISA, captured HBsAg from culture supernatant
Sequence (Q9PWW3 175-400): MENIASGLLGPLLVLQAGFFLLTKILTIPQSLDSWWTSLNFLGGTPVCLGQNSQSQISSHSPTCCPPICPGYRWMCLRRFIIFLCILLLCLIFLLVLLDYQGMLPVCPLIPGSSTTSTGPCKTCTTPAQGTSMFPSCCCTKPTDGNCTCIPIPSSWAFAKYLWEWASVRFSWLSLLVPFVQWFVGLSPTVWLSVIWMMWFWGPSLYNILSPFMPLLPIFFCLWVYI
Use pM as the unit, but write only the number.

binder	IC50, pM
NOV3832 (antibody, human IgG1, lambda, V domains shown, Full human IgG1 (lambda) expressed in CHO cells) VH: EMQVLESGGGLVQPGGSLRLSCAASGFTFDNYAMSWVRQVPGKGLEWVSSISGSGGSTYYADSVKGQFTISRDNSKNTLYLQMNSLRAEDTAVYYCAKSSILSGGHARVYGIDVWGQGTTVTVSS VL: QSALTQPPSVSVAPGQTARITCGGNNIGSQSVHWYQQKPGQAPILVVYDDTDRPSGIPARFSGSSSGSTATLTIGRVEAGDEADYYCQVWDSSSDHVVFGGGTKLTVLS	20
NOV3833 (antibody, human IgG1, lambda, V domains shown, Full human IgG1 (lambda) expressed in CHO cells) VH: EMQVLESGGGLVQPGGSLRLSCAASGFTFHNYAMSWVRQVPGKGLEWVSSISGSGGSTYYADSVKGQFTISRDNSKNTLYLQMNSLRAEDTAVYYCAKSSILSGGHARVYGIDVWGQGTTVTVSS VL: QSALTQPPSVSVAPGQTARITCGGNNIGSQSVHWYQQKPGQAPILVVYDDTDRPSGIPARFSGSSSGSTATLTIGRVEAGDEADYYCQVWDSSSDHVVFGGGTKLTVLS	120
NOV3841 (antibody, human IgG1, lambda, V domains shown, Full human IgG1 (lambda) expressed in CHO cells) VH: EVQLLESGGGLVQPGGSRRLSCAASGFTFSYYGMNWVRQAPGKGLEWVSGITQSGSITYYADTVKGRFSISRDNSKNTLFLQMNSLRAEDTAVYYCAKVGVRSSSGMWDLDYWGQGTLVTVSS VL: SYVLTQPPSVSVAPGQTARLSCGGNNIGSKSLQWYQQKPGQAPVLVVNDESDRPSGIPERFSGSNSGNTATLTISRVEAGDEADYYCQVWDTSSDHVVFGGGTKLTVLG	350

Consider now this further binder.
Which IC50 reading was recorded for the binder NOV3842 (antibody, human IgG1, lambda, V domains shown, Full human IgG1 (lambda) expressed in CHO cells) VH: EVQLLESGGGLVQPGGSRRLSCAASGFTFSYYGMNWVRQAPGKGLEWVSGITNVGSITYYADTVKGRFSISRDNSKNTLFLQMNSLRAEDTAVYYCAKVGVRSSSGMWDLDYWGQGTLVTVSS VL: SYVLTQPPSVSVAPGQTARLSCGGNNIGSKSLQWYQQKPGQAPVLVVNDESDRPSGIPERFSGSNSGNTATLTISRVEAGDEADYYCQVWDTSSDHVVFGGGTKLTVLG ?
280
